- target: human CD36 (on HEK 293 or SCC25 cells) (human, UniProt P16671 2-472)
- Sequence (P16671 2-472 limits assumed): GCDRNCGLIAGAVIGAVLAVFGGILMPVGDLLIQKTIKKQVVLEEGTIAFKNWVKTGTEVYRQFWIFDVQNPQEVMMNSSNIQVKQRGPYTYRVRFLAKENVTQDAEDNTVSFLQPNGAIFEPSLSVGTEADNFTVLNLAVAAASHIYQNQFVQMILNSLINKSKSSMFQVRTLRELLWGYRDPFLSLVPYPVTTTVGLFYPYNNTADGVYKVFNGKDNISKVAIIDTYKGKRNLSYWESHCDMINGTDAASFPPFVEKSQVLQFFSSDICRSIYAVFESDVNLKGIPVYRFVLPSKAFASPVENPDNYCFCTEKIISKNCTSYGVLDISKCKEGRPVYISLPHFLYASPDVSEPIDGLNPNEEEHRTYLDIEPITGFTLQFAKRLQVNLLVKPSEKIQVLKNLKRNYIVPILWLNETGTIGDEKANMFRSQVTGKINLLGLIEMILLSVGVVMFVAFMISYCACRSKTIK
- test: cell-based or functional assay
value-type: IC50 of fatty acid uptake inhibition (BODIPY FL C16, HEK hCD36 cells)

# binder, readout-value
data = [
    ("9G04 (antibody, human IgG1, V domains shown, Chimeric: mouse variable regions on human IgG1 LALA (L234A/L235A); also called 09G04; 009G04) VH: QVQLQQSGAELVRPGASVTLSCKASGYTFTDYEMHWVKQTPVHGLEWIGTVDPETGGTAFNQKFKDKASLTADKSSSTVYMELRSLTSEDSAVYYCSRGYGNYGAWFAYWGQGTLVTVSA VL: ETTVTQSPASLSVATGEKVTIRCITSTDIDDDMNWYQQKPGEPPKLLISEGNTLRPGVPSRFSSSGYGTDFVFTIENMLSEDVADYYCLQSDNLPFTFGSGTKLEIK", "170 nM"),
]
